Reference source for all entries: PubChem BioAssay (NCI)

- Tested on: HL-60(TB) leukemia
- assay-method-text: NCI tumour cell line growth inhibition, 48 h
Please provide measured TGI for the entries that follow.
Lab book: enter the figure in µM, no units written.

Prompt line: Which measured TGI value corresponds to Cc1cccc(/C=N/NC(=S)N2CCCC2)n1 ?
Response line: 0.872

Prompt line: Which measured TGI value corresponds to COc1cc2nc(N3CCCC3)nc(NCc3ccccc3)c2cc1OC ?
Response line: 4.33

Prompt line: Which measured TGI value corresponds to CN(C)c1nc(N)nc(CS)n1 ?
Response line: 60.6

Prompt line: Which measured TGI value corresponds to C=C(C(N)=O)c1ccc([N+](=O)[O-])o1 ?
Response line: 6.12

Prompt line: Which measured TGI value corresponds to CCOc1cc2c(C(=O)CC)c(O)ccc2o1 ?
Response line: 23
